- conditionDetails: Cottonseed oil; heating temp. 60 °C, obs. temp. 40 °C
outcomeMeasure: Approximate Solubility (mg/mL) in Excipient: Cottonseed oil

A selection of reference data follows.
| molecule | observedMeasurement |
| --- | --- |
| C=C1CC[C@@]2(O)C3Cc4ccc(OC(=O)CCCCCCCCCCCCCCC)c5c4[C@@]2(CCN3CC2CC2)[C@H]1O5 [Compound 56] | 25 to 50 mg/mL |
| CCCCCCCC/C=C\CCCCCCCCCCCC(=O)Oc1ccc2c3c1O[C@H]1C(=O)CC[C@@]4(O)C(C2)N(CC2CC2)CC[C@]314 [Compound 22] | >405.9 mg/mL |

[ask] Name the recorded Approximate Solubility (mg/mL) in Excipient: Cottonseed oil of the molecule listed here: C=C1CC[C@@]2(O)C3Cc4ccc(OC(=O)CCCCCCCCCCCCCCCCCCCCC)c5c4[C@@]2(CCN3CC2CC2)[C@H]1O5 [Compound 14]
[reply] <25 mg/mL

----------
- experiment: Polymorph screening of solid state drug substances
- conditionDetails: Isopropanol; target conc. 100 mg/ml; RT
outcomeMeasure: Visual observation RT

| structureSmilesString | Visual observation RT |
| --- | --- |
| C=C1CC[C@@]2(O)C3Cc4ccc(OC(=O)OCCCCCCCCCCCCCC)c5c4[C@@]2(CCN3CC2CC2)[C@H]1O5 | Clear |
| C=C1CC[C@@]2(O)C3Cc4ccc(OC(=O)CCCCCCCCCCCCCCCCCCCCC)c5c4[C@@]2(CCN3CC2CC2)[C@H]1O5 | Clear |
| CCCCCCCCCCCCCCCCOC(=O)Oc1ccc2c3c1O[C@H]1C(=O)CC[C@@]4(O)C(C2)N(CC2CC2)CC[C@]314 | Slurry |
| C=C1CC[C@@]2(O)C3Cc4ccc(OC(=O)NC(C)(C)C)c5c4[C@@]2(CCN3CC2CC2)[C@H]1O5 | Slurry |
| CCCCCCCCCCCCCCCC(=O)Oc1ccc2c3c1O[C@H]1C(=O)CC[C@@]4(O)C(C2)N(CC2CC2)CC[C@]314 | Slurry |

[ask] Name the recorded Visual observation RT of the compound listed here: "CCCCCCCCCCCCOC(=O)Oc1ccc2c3c1O[C@H]1C(=O)CC[C@@]4(O)C(C2)N(CC2CC2)CC[C@]314"
[reply] Slurry

[ask] Name the recorded Visual observation RT of the compound listed here: "C=C1CC[C@@]2(O)C3Cc4ccc(OC(=O)OCCCCCCCCCCCCCCCC)c5c4[C@@]2(CCN3CC2CC2)[C@H]1O5"
[reply] Slurry

[ask] Name the recorded Visual observation RT of the compound listed here: "C=C1CC[C@@]2(O)C3Cc4ccc(OC(=O)CCCCCCCCCCCCCCCCCCC)c5c4[C@@]2(CCN3CC2CC2)[C@H]1O5"
[reply] Slurry

----------
- experiment: Polymorph screening of solid state drug substances
- conditionDetails: Heptane; target conc. 100 mg/ml; 50 °C
outcomeMeasure: Visual observation 50° C.

A selection of reference data follows.
| structureSmilesString | Visual observation 50° C. |
| --- | --- |
| CCCCCCCCCCCCCCCCOC(=O)Oc1ccc2c3c1O[C@H]1C(=O)CC[C@@]4(O)C(C2)N(CC2CC2)CC[C@]314 | Clear |
| C=C1CC[C@@]2(O)C3Cc4ccc(OC(=O)CCCCCCCCCCCCCCCCCCCCC)c5c4[C@@]2(CCN3CC2CC2)[C@H]1O5 | Slurry |
| CCCCCCCCCCCCOC(=O)Oc1ccc2c3c1O[C@H]1C(=O)CC[C@@]4(O)C(C2)N(CC2CC2)CC[C@]314 | Clear |
| C=C1CC[C@@]2(O)C3Cc4ccc(OC(=O)NC(C)(C)C)c5c4[C@@]2(CCN3CC2CC2)[C@H]1O5 | Slurry |

Now for the molecule whose Visual observation 50° C. we want.
[ask] Name the recorded Visual observation 50° C. of the molecule listed here: "C=C1CC[C@@]2(O)C3Cc4ccc(OC(=O)OCCCCCCCCCCCCCC)c5c4[C@@]2(CCN3CC2CC2)[C@H]1O5"
[reply] Clear

----------
- experiment: Polymorph screening of solid state drug substances
- conditionDetails: Heptane; target conc. 100 mg/ml; 50 °C

| structureSmilesString | Visual observation 50° C. |
| --- | --- |
| C=C1CC[C@@]2(O)C3Cc4ccc(OC(=O)OCCCCCCCCCCCCCCCC)c5c4[C@@]2(CCN3CC2CC2)[C@H]1O5 | Clear |
| CCCCCCCCCCCCCCCC(=O)Oc1ccc2c3c1O[C@H]1C(=O)CC[C@@]4(O)C(C2)N(CC2CC2)CC[C@]314 | Clear |

----------
- experiment: Plasma stability assay, dog plasma
- Format: in vitro ADME
- conditionDetails: 2 μM, 37° C., 1440 min (head)
- Procedure: Plasma stability determination of the test compounds in rat, dog, cynomolgus monkey and human plasma is performed using HPLC-MS. For rat, incubations are carried out in 96-well polypropylene plates in 5 aliquots of 70 μL each (one for each time point). […] Five time points are analyzed (0, 15, 120, 480 and 1440 min). […] All incubations are performed in duplicates. The samples are analyzed by HPLC-MS. The percentage of parent compound remaining after incubation in plasma is determined.
Labelling field: enter 1 if recorded % remaining at time point is less than 90%. Enter 0 if it equals or exceeds that cut-off.

[ask] API: query returns whether the compound falls strictly under 90% in % remaining at time point. Query: CCCCCCCCCCCC(=O)OCN1C(=O)CCc2ccc(OCCCCN3CCN(c4cccc(Cl)c4Cl)CC3)cc21 [Aripiprazole Lauroxil, reference compound]
[reply] 1

[ask] API: query returns whether the compound falls strictly under 90% in % remaining at time point. Query: "C=C1CC[C@@]2(O)C3Cc4ccc(OC(=O)CCCCCCC/C=C/CCCCCCCC)c5c4[C@@]2(CCN3CC2CC2)[C@H]1O5"
[reply] 1

[ask] API: query returns whether the compound falls strictly under 90% in % remaining at time point. Query: "C=C1CC[C@@]2(O)C3Cc4ccc(OCOC(=O)OCCCCCCCCCCCC)c5c4[C@@]2(CCN3CC2CC2)[C@H]1O5"
[reply] 0

[ask] API: query returns whether the compound falls strictly under 90% in % remaining at time point. Query: CCCCCCCCCCCCCCCC(=O)OC1CCCn2c1nc(C)c(CCN1CCC(c3noc4cc(F)ccc34)CC1)c2=O (centres unmarked) [Paliperidone palmitate, reference compound]
[reply] 0

[ask] API: query returns whether the compound falls strictly under 90% in % remaining at time point. Query: "C=C1CC[C@@]2(O)C3Cc4ccc(OC(=O)OCCCCCCCCCCCC)c5c4[C@@]2(CCN3CC2CC2)[C@H]1O5"
[reply] 0

----------
- experiment: Plasma stability assay, rat plasma
- Type: in vitro ADME
- conditionDetails: 10 μM, 37° C., 480 min
Labelling field: enter condition met if recorded % remaining at time point is less than 4%. Enter condition not met if it equals or exceeds that cut-off.

Worked examples follow.
| molecule | assignedCategory |
| --- | --- |
| C=C1CC[C@@]2(O)C3Cc4ccc(OC(=O)OCCCCCCCCCCCCC)c5c4[C@@]2(CCN3CC2CC2)[C@H]1O5 [Compound 30] | condition not met |
| C=C1CC[C@@]2(O)C3Cc4ccc(OC(=O)CCCCCCCCCCCCCCC)c5c4[C@@]2(CCN3CC2CC2)[C@H]1O5 [Compound 56] | condition not met |
| C=C1CC[C@@]2(O)C3Cc4ccc(OC(=O)CCCCCCCCCCC)c5c4[C@@]2(CCN3CC2CC2)[C@H]1O5 [Compound 59, reference compound] | condition met |

[ask] API: query returns whether the molecule falls strictly under 4% in % remaining at time point. Query: CCCCCCCCOC(=O)Oc1ccc2c3c1O[C@H]1C(=O)CC[C@@]4(O)C(C2)N(CC2CC2)CC[C@]314 [Compound 23]
[reply] condition met

[ask] API: query returns whether the molecule falls strictly under 4% in % remaining at time point. Query: CCCCCCCCCCCCCCCCCC(=O)Oc1ccc2c3c1O[C@H]1C(=O)CC[C@@]4(O)C(C2)N(CC2CC2)CC[C@]314 [Compound 54]
[reply] condition not met

----------
- experiment: Polymorph screening of solid state drug substances
- conditionDetails: MTBE; dried solid after 50 °C 72 hours
outcomeMeasure: XRPD results (Dried)

A selection of reference data follows.
| structureSmilesString | XRPD results (Dried) |
| --- | --- |
| C=C1CC[C@@]2(O)C3Cc4ccc(OC(=O)CCCCCCCCCCCCCCCCCCC)c5c4[C@@]2(CCN3CC2CC2)[C@H]1O5 | Pattern A |
| C=C1CC[C@@]2(O)C3Cc4ccc(OC(=O)OCCCCCCCCCCCCCC)c5c4[C@@]2(CCN3CC2CC2)[C@H]1O5 | Pattern A |
| C=C1CC[C@@]2(O)C3Cc4ccc(OC(=O)CCCCCCCCCCCCCCCCCCCCC)c5c4[C@@]2(CCN3CC2CC2)[C@H]1O5 | Pattern A |
| CCCCCCCCCCCCOC(=O)Oc1ccc2c3c1O[C@H]1C(=O)CC[C@@]4(O)C(C2)N(CC2CC2)CC[C@]314 | Pattern A |

[ask] Name the recorded XRPD results (Dried) of the compound listed here: "C=C1CC[C@@]2(O)C3Cc4ccc(OC(=O)OCCCCCCCCCCCCCCCC)c5c4[C@@]2(CCN3CC2CC2)[C@H]1O5"
[reply] Pattern A

[ask] Name the recorded XRPD results (Dried) of the compound listed here: "CCCCCCCCCCCCCCCCOC(=O)Oc1ccc2c3c1O[C@H]1C(=O)CC[C@@]4(O)C(C2)N(CC2CC2)CC[C@]314"
[reply] Pattern A
